The measurements presented in this section are drawn from PubChem BioAssay (NCI).

TGI values by entry
- Tested on: MOLT-4 leukemia
- assay-overview: NCI tumour cell line growth inhibition, 48 h

# compound, target-or-system, qual, TGI [µM]
rows = [
    ("CN1CCN(CCCOc2cc(O)c3c(=O)cc(-c4ccccc4)oc3c2)CC1", "MOLT-4 leukemia", "=", 38.8),
    ("CNC(=O)c1cncc(/C=C/c2ccccc2Cl)c1", "MOLT-4 leukemia", ">", 25),
    ("O=C(C(=C(I)I)c1ccccc1)c1ccccc1", "MOLT-4 leukemia", "=", 58.1),
    ("COc1cc(/C=C2\\CCCC3=C2N=C2SC(C)=NN2C3c2cc(OC)c(OC)c(OC)c2)cc(OC)c1OC (stereo unspecified)", "MOLT-4 leukemia", ">", 100),
    ("CC(=O)Oc1ccc2c(-c3ccccc3)c(Oc3ccc(Cl)cc3)c(=O)oc2c1", "MOLT-4 leukemia", "=", 34.7),
    ("CC(C)(C)/C(O)=C\\c1nc2cc(F)c(F)cc2[nH]c1=O", "MOLT-4 leukemia", ">", 100),
]
